Item-by-item account of pIC50
# System: 565232-114-T-J1-PDC complex spheroid viability
# protocol.notes: Anticancer human tumor 565232-114-T-J1-PDC patient-derived bladder carcinoma cell line growth inhibition [CLK]
# settings: curve of first compound; second compound 0.0316 µM
pIC50: −log10 of the molar value.

compound: CC(Nc1ccc2c(c1)OCCn1cc(N3C(=O)OCC3C(F)F)nc1-2)C(N)=O (stereo not given) + CNC(=O)c1ccc(Nc2nc(OC3CCCC3)c3c(-c4ccc5nc(C)oc5c4)c[nH]c3n2)c(OC)c1
pIC50: < 5.00
--
compound: CC(CO)NC(=O)c1cc(-c2ccc(Cl)cc2)nn(-c2cnn(C)c2)c1=O (stereo not given) + CN1CCN(c2cc(C(=O)Nc3cc4cc(-c5cnn(C)c5)ccc4cn3)ccn2)CC1
pIC50: < 5.00
--
compound: C=CC(=O)Nc1cc(Nc2nccc(-c3cn(C)c4ccccc34)n2)c(OC)cc1N(C)CCN(C)C + CNC(=O)c1ccc(Nc2nc(OC3CCCC3)c3c(-c4ccc5nc(C)oc5c4)c[nH]c3n2)c(OC)c1
pIC50: < 6.52
--
compound: CC(=O)O[C@H]1C(=O)[C@@]2(C)[C@H]([C@H](OC(=O)c3ccccc3)[C@]3(O)C[C@H](OC(=O)[C@H](O)[C@@H](NC(=O)c4ccccc4)c4ccccc4)C(C)=C1C3(C)C)[C@]1(OC(C)=O)CO[C@@H]1C[C@@H]2O + CNC(=O)c1ccc(Nc2nc(OC3CCCC3)c3c(-c4ccc5nc(C)oc5c4)c[nH]c3n2)c(OC)c1
pIC50: > 7.50
--
compound: COc1c(OCCCN2CCOCC2)ccc2c3n(c(=NC(=O)c4cnc(N)nc4)nc12)CCN3 + CNC(=O)c1ccc(Nc2nc(OC3CCCC3)c3c(-c4ccc5nc(C)oc5c4)c[nH]c3n2)c(OC)c1
pIC50: < 6.00

---

Reported viability, T/C values for a set of compounds
# Tested on: 565232-114-T-J1-PDC complex spheroid viability
# protocol.notes: Anticancer human tumor 565232-114-T-J1-PDC cell line growth inhibition [CLK];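 further: spheroids exposed to compounds for 7 days before readout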;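 on viability, T/C: 100% = DMSO vehicle wells with luminescence normalized to vehicle control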
# settings: second compound 3.16 µM; first compound 0.00316 µM; stronger effect = lower value

compound: CCc1c2c(nc3ccc(O)cc13)-c1cc3c(c(=O)n1C2)COC(=O)[C@]3(O)CC + CN1CCN(c2cc(C(=O)Nc3cc4cc(-c5cnn(C)c5)ccc4cn3)ccn2)CC1
viability, T/C, %: 0.22

compound: CCN1CCN(Cc2ccc(Nc3ncc(F)c(-c4cc(F)c5nc(C)n(C(C)C)c5c4)n3)nc2)CC1 + CN1CCN(c2cc(C(=O)Nc3cc4cc(-c5cnn(C)c5)ccc4cn3)ccn2)CC1
viability, T/C, %: 0.2

compound: COc1c(OCCCN2CCOCC2)ccc2c3n(c(=NC(=O)c4cnc(N)nc4)nc12)CCN3 + CNC(=O)c1ccc(Nc2nc(OC3CCCC3)c3c(-c4ccc5nc(C)oc5c4)c[nH]c3n2)c(OC)c1
viability, T/C, %: 15.6

compound: CCc1c2c(nc3ccc(O)cc13)-c1cc3c(c(=O)n1C2)COC(=O)[C@]3(O)CC + CNC(=O)c1ccc(Nc2nc(OC3CCCC3)c3c(-c4ccc5nc(C)oc5c4)c[nH]c3n2)c(OC)c1
viability, T/C, %: 15.7

compound: Cn1ncnc1[C@H]1c2n[nH]c(=O)c3cc(F)cc(c23)N[C@@H]1c1ccc(F)cc1 + CN1CCN(c2cc(C(=O)Nc3cc4cc(-c5cnn(C)c5)ccc4cn3)ccn2)CC1
viability, T/C, %: 2.43

Measured values drawn from PubChem BioAssay AID2060612 for this set.
